// provenance: patent US10906873B2

Below, each of the compounds is paired with its reported Plant response rating, Ryegrass, It. value.
Tested on: ryegrass, It. (Italian ryegrass, Lolium multiflorum)
Assay: Test A postemergence, ryegrass, It.
Assay type: in vivo
Details: 125 g ai/ha, 0 to 100 scale

{"compound": "O=C1NCC(Cc2cccc(C(F)(F)F)c2)C1C(=O)Nc1cccc(F)c1F (centres unmarked) [Compound 11]", "value.observed": 0}

# input Entry O=C1NCC(/C=C/c2ccccc2)C1C(=O)Nc1ccccc1F (centres unmarked) [Compound 32] : reported Plant response rating, Ryegrass, It. = ?
# output 0

# input Entry O=C1NCC(/C=C/c2cccc(F)c2)C1C(=O)Nc1cccc(F)c1F (centres unmarked) [Compound 30] : reported Plant response rating, Ryegrass, It. = ?
# output 0

# input So what does the record say about Plant response rating, Ryegrass, It. for O=C1NCC(/C=C/c2cccc(F)c2)C1C(=O)Nc1ccccc1F (centres unmarked) [Compound 24] ?
# output 0

# input Data request, read-out Plant response rating, Ryegrass, It., for O=C1NCC(Cc2cccc(F)c2F)C1C(=O)Nc1ccccc1C(F)(F)F (centres unmarked) [Compound 10]
# output 0
